molecules and their reported GI50
Tested on: MCF-7 cells
Assay: Test 1: growth inhibition of MCF-7 human breast cancer cells
Assay type: cell-based
Details: Homo sapiens, MCF7, 72 hours culture with sample, read-out: GI50 (50% growth inhibition concentration)
Your answer is read as nM, so omit the unit and give the number.

molecule: C[C@@H]1OCCN(c2cc(N3CCOCC3)nc(-n3c(CF)nc4ccccc43)n2)[C@@H]1C (relative stereo)
measurement.name: GI50
meas.value: 200

Incoming: Look up and state reported GI50 for COC(=O)Nc1nc2ccccc2n1-c1nc(N2CCOCC2)nc(N2CCOCC2)n1
Outgoing: 250

Incoming: Look up and state reported GI50 for C[C@H]1COC(C)(C)CN1c1cc(N2CCOCC2)nc(-n2c(C(F)F)nc3ccccc32)n1
Outgoing: 320

Incoming: Look up and state reported GI50 for C[C@@H]1CO[C@@H](C)CN1c1nc(N2CCOCC2)nc(-n2c(C(F)F)nc3ccccc32)n1 (relative stereo)
Outgoing: 180

----------
molecules and their reported GI50
Test system: MCF-7 cells
Assay: Test 1: growth inhibition of MCF-7 human breast cancer cells
Type: cell-based
Conditions: Homo sapiens, MCF7, 72 hours culture with sample, read-out: GI50 (50% growth inhibition concentration)
Your answer is read as nM, so omit the unit and give the number.

# example entries with known answers
molecule: Nc1cccc2c1nc(C(F)F)n2-c1nc(N2CCOCC2)nc(N2CCOCC2)n1 [compound 34]
assay.system: MCF-7 cells
GI50 [nM]: 80
//
molecule: FC(F)c1nc2ccccc2n1-c1nc(N2CCOCC2)cc(N2CCOCC2)n1 [compound 2]
assay.system: MCF-7 cells
GI50 [nM]: 210
//
molecule: Nc1ccc2nc(C(F)F)n(-c3nc(N4CCOCC4)cc(N4CCOCC4)n3)c2c1 [compound 35]
assay.system: MCF-7 cells
GI50 [nM]: 140
//
molecule: FC(F)c1nc2ccccc2n1-c1nc(N2CCOCC2)nc(N2CCSCC2)n1 [compound 16]
assay.system: MCF-7 cells
GI50 [nM]: 350
//
molecule: C[C@@H]1OCCN(c2cc(N3CCOCC3)nc(-n3c(C(F)F)nc4ccc(N)cc43)n2)[C@@H]1C (relative stereo) [compound 36]
assay.system: MCF-7 cells
GI50 [nM]: 290

Incoming: Look up and state reported GI50 for CC1CN(c2nc(N3CCOCC3)nc(-n3c(C(F)F)nc4ccccc43)n2)CCO1 (stereo not shown) [compound 17]
Outgoing: 120

Incoming: Look up and state reported GI50 for C[C@@H]1OCCN(c2cc(N3CCOCC3)nc(-n3c(CO)nc4ccccc43)n2)[C@@H]1C (relative stereo) [compound 10]
Outgoing: 130

----------
Test system: MCF-7 cells
Assay: Test 1: growth inhibition of MCF-7 human breast cancer cells
Type: cell-based
Settings: Homo sapiens, MCF7, 72 hours culture with sample, read-out: GI50 (50% growth inhibition concentration)
Method: Used in the test were MCF-7 cells which were established from human breast cancer and were cultured routinely under the conditions of 37° C. and 5% CO2, in MEM medium supplemented with 10% fetal calf serum, 25 mM of HEPES and 0.1 mg/ml of kanamycin. The MCF-7 cells in a logarithmic growth phase were treated with trypsin/EDTA to prepare single cell suspension adjusted to 4.0×10^4 cells/ml in MEM medium (supplemented with 10% fetal calf serum, 25 mM of HEPES and 0.1 mg/ml of kanamycin). […]
molecules and their reported GI50
Your answer is read as nM, so omit the unit and give the number.

# example entries with known answers
molecule: C[C@@H]1OCCN(c2cc(N3CCOCC3)nc(-n3c(C(F)F)nc4ccccc43)n2)[C@@H]1C (relative stereo)
assay.system: MCF-7 cells
GI50 / nM: 110

molecule: CC1(C)OCCN1c1nc(N2CCOCC2)nc(-n2c(C(F)F)nc3cc(O)ccc32)n1
assay.system: MCF-7 cells
GI50 / nM: 60

molecule: CC1(C)CN(c2nc(N3CCOCC3)nc(-n3c(C(F)F)nc4ccccc43)n2)CCO1
assay.system: MCF-7 cells
GI50 / nM: 130

Incoming: Find the measured GI50 of C[C@@H]1OCCN(c2cc(N3CCOCC3)nc(-n3c(N)nc4ccccc43)n2)[C@H]1C.Cl (relative stereo) [compound 31, hydrochloride] with MCF-7 cells as test system.
Outgoing: 240

Incoming: Find the measured GI50 of Cc1nc2ccccc2n1-c1nc(N2CCOCC2)nc(N2CCOCC2)n1 [compound B, reference compound] with MCF-7 cells as test system.
Outgoing: 3700

Incoming: Find the measured GI50 of CC(=O)Nc1nc2ccccc2n1-c1nc(N2CCOCC2)nc(N2CCOCC2)n1 with MCF-7 cells as test system.
Outgoing: 230

Values from patent US7307077B2
